Reported Enzyme degradation CDK2 (% remaining) @ 0.1 μM values are given for each entry in this list.
- Assayed target: CDK2 (Homo sapiens, UniProt P24941)
- Construct: endogenous in cells; host or cells: MDA-MB-231
- Run description: CDK protein degradation activity (Western blotting), CDK2
- Assay type: cell-based
- Condition description: MDA-MB-231 cells, 0.1 μM, 16 hours, Western blot
Property: Enzyme degradation CDK2 (% remaining) @ 0.1 μM (%)

[
  {
    "Molecule": "Cc1cccc(C(=O)NC2CC(n3cnc4c(NCCC5CCN(CC6CCN(CC7CN(c8ccc9c(c8)C(=O)N([C@H]8CCC(=O)NC8=O)C9=O)C7)CC6)CC5)ncnc43)C2)n1 (some centres unmarked) [Compound 402]",
    "Recorded number": 70
  },
  {
    "Molecule": "O=C1CC[C@H](N2C(=O)c3ccc(OCC(=O)N4CCC(CCCN5CCN(c6ccc(Nc7ncnc8c7ncn8[C@H]7C[C@@H](NC(=O)Cc8ccccc8)C7)cc6)CC5)CC4)cc3C2=O)C(=O)N1 [Compound 256]",
    "Recorded number": 40
  },
  {
    "Molecule": "O=C1CCN(c2coc3cc(C(=O)NC[C@H]4CC[C@H](CN5CCN(c6ccc(Nc7ncnc8c7ncn8[C@H]7C[C@@H](NC(=O)Cc8ccccc8)C7)cc6)CC5)CC4)ccc23)C(=O)N1 [Compound 199]",
    "Recorded number": 50
  },
  {
    "Molecule": "O=C1CC[C@H](N2C(=O)c3cccc(NCC(=O)N4CCC(CC(=O)N5CCN(c6ccc(Nc7ncnc8c7ncn8C7CC(NC(=O)Cc8ccccc8)C7)cc6)CC5)CC4)c3C2=O)C(=O)N1 (some centres unmarked) [Compound 211]",
    "Recorded number": 50
  }
]
